molecular target: MGL (Rattus norvegicus, UniProt Q8R431); construct: one g rat brain was homogenized using a Polytron homogenizer; from tissue; host or cells: rat brain homogenate; assay: 2-AG Accumulation Assay in rat brain homogenate; format: biochemical; details: compound @10 µM, percent of vehicle, read-out: Rat Brain 2AG % VehCntrl (%) @10 µM
Below, each of the molecules is paired with its reported activity at 10 µM value.
METRIC: activity at 10 µM (%)

O=C(c1cc2ccc(-c3ccccc3)cc2s1)N1CC(N2CC(N3Cc4ccccc4C3=O)C2)C1 [Cpd 98]    613
O=C(c1ccc2c(ccn2S(=O)(=O)c2ccccc2)c1)N1CC(N2CC(N3Cc4ccccc4C3=O)C2)C1 [Cpd 71]    400
O=C(c1ccc2c(-c3ccccc3)cccc2c1)N1CC(N2CC(N3Cc4ccccc4C3=O)C2)C1 [Cpd 97]    518
O=C(NC1CN(C2CN(C(=O)c3ccc4c(ccn4-c4ccc(F)cc4)c3)C2)C1)c1cscn1 [Cpd 11]    220
O=C(c1ccc2nc(-c3ccccc3)oc2c1)N1CC(N2CC(N3Cc4ccccc4C3=O)C2)C1 [Cpd 84]    435
O=C(c1ccc2c(Br)cccc2c1)N1CC(N2CC(N3Cc4ccccc4C3=O)C2)C1 [Cpd 83]    416
O=C(c1ccc2cc(-c3ccccc3)ccc2c1)N1CC(N2CC(N3Cc4ccccc4C3=O)C2)C1 [Cpd 69]    600
O=C(NC1CN(C2CN(C(=O)c3cc4ccc(Br)cc4s3)C2)C1)c1nccs1 [Cpd 23]    343

###

Target: MGL (Rattus norvegicus)
Construct: one g rat brain was homogenized using a Polytron homogenizer; from tissue; host or cells: rat brain homogenate
Sequence (Q8R431 1-303): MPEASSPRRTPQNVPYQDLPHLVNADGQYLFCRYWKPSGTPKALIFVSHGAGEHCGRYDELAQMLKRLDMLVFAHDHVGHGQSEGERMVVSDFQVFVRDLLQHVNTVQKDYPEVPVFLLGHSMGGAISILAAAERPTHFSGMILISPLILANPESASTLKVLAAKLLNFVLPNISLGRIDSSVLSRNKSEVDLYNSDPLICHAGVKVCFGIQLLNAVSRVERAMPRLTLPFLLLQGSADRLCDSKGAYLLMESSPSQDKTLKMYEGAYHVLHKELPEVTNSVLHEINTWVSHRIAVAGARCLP
Experiment: 2-AG Accumulation Assay in rat brain homogenate
Assay type: biochemical
Conditions: compound @1 µM, percent of vehicle, read-out: Rat Brain 2AG % VehCntrl (%) @1 µM
One threshold, 400%, splits the recorded activity at 1 µM values: lower ones are True, equal or higher ones are False.

O=C(NC1CN(C2CN(C(=O)c3cc4ccc(C(F)(F)F)cc4s3)C2)C1)c1nccs1    True
O=C(c1cc2cc(-c3ccccc3)ccc2s1)N1CC(N2CC(N3Cc4ccccc4C3=O)C2)C1    True
O=C(NC1CN(C2CN(C(=O)c3ccc(-c4ccc(C(F)(F)F)cc4)cc3)C2)C1)c1nccs1    True
CS(=O)(=O)c1cccc(-c2ccc3sc(C(=O)N4CC(N5CC(N6Cc7ccccc7C6=O)C5)C4)cc3c2)c1    False
O=C(NC1CN(C2CN(C(=O)c3ccc4nc(-c5ccccc5)oc4c3)C2)C1)c1nccs1    True
O=C(c1cc2ccc(C(F)(F)F)cc2s1)N1CC(N2CC(N3Cc4ccccc4C3=O)C2)C1    True
Cc1cn(-c2ccc(F)cc2)c2ccc(C(=O)N3CC(N4CC(NC(=O)c5nccs5)C4)C3)cc12    True
O=C(NC1CN(C2CN(C(=O)c3ccc4nc(-c5ccccc5)sc4c3)C2)C1)c1nccs1    True
O=C(NC1CN(C2CN(C(=O)c3ccc(-c4ccc(C(F)(F)F)cc4)cc3F)C2)C1)c1nccs1    True
O=C(NC1CN(C2CN(C(=O)c3ccc4c(ccn4-c4ccc(F)c(F)c4)c3)C2)C1)c1cscn1    True
O=C(c1sc2cc(-c3ccccc3)ccc2c1Cl)N1CC(N2CC(N3Cc4ccccc4C3=O)C2)C1    False
O=C(NC1CN(C2CN(C(=O)c3ccc(-c4ccc(C(F)(F)F)s4)cc3)C2)C1)c1nccs1    True
O=C(NC1CN(C2CN(C(=O)c3ccc4c(ccn4-c4ccc(C(F)(F)F)cc4)c3)C2)C1)c1nccs1    True
O=C(c1sc2cc(C(F)(F)F)ccc2c1Cl)N1CC(N2CC(N3Cc4ccccc4C3=O)C2)C1    False
O=C(NC1CN(C2CN(C(=O)c3ccc(-c4cccc(C(F)(F)F)c4)cc3)C2)C1)c1nccs1    True
O=C(NC1CN(C2CN(C(=O)c3sc4cc(C(F)(F)F)ccc4c3Cl)C2)C1)c1cscn1    False
O=C(c1ccc2nc(-c3ccccc3)oc2c1)N1CC(N2CC(N3Cc4ccccc4C3=O)C2)C1    True
Cc1c(C(=O)N2CC(N3CC(N4Cc5scnc5C4=O)C3)C2)sc2cc(C(F)(F)F)ccc12    True
O=C(NC1CN(C2CN(C(=O)c3cc4c(C(F)(F)F)cccc4s3)C2)C1)c1nccs1    True
Cc1c(C(=O)N2CC(N3CC(NC(=O)c4cscn4)C3)C2)sc2cc(C(F)(F)F)ccc12    False
O=C(NC1CN(C2CN(C(=O)c3ccc4c(cnn4-c4ccccc4)c3)C2)C1)c1nccs1    True
O=C(c1sc2cc(-c3ccccc3)ccc2c1-c1ccccc1)N1CC(N2CC(N3Cc4ccccc4C3=O)C2)C1    True
